system: Large T antigen (Simian virus 40);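 further: Confirmatory-stage PubChem screen for compounds that inhibit SV40 T antigen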
Sequence (P03070 whole entry): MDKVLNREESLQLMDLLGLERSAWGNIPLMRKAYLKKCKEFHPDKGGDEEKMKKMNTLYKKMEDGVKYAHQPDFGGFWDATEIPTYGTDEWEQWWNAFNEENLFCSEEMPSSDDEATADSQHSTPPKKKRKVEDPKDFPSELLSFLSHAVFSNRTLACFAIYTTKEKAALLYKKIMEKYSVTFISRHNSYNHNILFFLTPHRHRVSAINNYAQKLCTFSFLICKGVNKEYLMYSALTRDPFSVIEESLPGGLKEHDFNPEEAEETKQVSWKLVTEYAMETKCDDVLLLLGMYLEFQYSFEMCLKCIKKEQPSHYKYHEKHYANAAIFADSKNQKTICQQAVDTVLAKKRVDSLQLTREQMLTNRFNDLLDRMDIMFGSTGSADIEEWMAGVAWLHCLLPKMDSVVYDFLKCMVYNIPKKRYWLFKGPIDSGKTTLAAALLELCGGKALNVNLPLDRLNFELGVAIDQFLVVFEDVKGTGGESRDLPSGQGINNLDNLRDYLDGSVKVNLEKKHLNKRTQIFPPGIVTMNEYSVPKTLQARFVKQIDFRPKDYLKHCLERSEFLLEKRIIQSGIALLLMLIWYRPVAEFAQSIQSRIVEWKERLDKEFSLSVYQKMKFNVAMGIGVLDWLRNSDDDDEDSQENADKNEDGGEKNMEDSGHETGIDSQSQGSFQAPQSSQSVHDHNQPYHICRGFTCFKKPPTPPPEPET
Format: functional, Betapolyomavirus macacae
Structures can show the parent of a compound that is named as a salt. The source made the active and inactive calls.
attribute-measured: IC50

Cc1cc(O)c(C=O)c2c1C(=O)Oc1c(CO)c(O)c3c(c1O2)C(O)OC3=O (centres undefined) [SLAZINIC ACID] = 17.5 µM (active)

Answer for every listed entry: what is its IC50? The entries follow.
1. Cc1cc2c(n1-c1ccc(C(=O)O)cc1)CCCCC2
2. NCCc1c[nH]c2ccc(O)cc12 [SEROTONIN HYDROCHLORIDE]
3. COc1cc(SC)ccc1C(=O)N1CCN(Cc2ccccc2)CC1
4. COc1cc(/C=N/NC(=O)c2nc(C)cc(C)n2)ccc1O
5. COc1cc(/C=C2\SC(=S)N(C(Cc3ccccc3)C(=O)O)C2=O)ccc1O (centres undefined)
6. COc1cc(/C=C2/C(=O)NN(c3ccc(Cl)c(Cl)c3)C2=O)cc([N+](=O)[O-])c1O
7. COc1cc(/C=N/NC(=O)CCn2nnc3ccccc32)ccc1O

[out]
1: 71.2 µM (active); 2: 41.3 µM (active); 3: 53.8 µM (active); 4: 39.5 µM (active); 5: 65 µM (active); 6: 12.5 µM (active); 7: 8.58 µM (active)

[in] Specify measured IC50 for `Cc1ccc(-c2cc(-c3ccco3)c(C#N)c(=O)[nH]2)cc1` .
[out] 64.5 µM (active)

###

system: Genome polyprotein (dengue virus type 2, UniProt P29990)
experimental-details: flavivirus cap methylation enzyme inhibition – biochemical, confirmation dose response, primary screen (AID 588689)
Type: functional
Active and inactive are the calls of the source.
I'd appreciate it if you could supply IC50 values for the items below.

O=S(=O)(N=C1C=CC(=NS(=O)(=O)c2ccccc2)c2ccccc21)c1ccccc1 = 19.1 µM (active)
C#CCOc1c(Br)cc(/C=C2/C(=O)ON=C2C)cc1OCC = 84.7 µM (active)
CC(=O)N(C1=C(Cl)C(=O)c2ccccc2C1=O)c1ccc(C(=O)O)cc1 = 5.89 µM (active)
Cc1c(Cl)cccc1NS(=O)(=O)c1ccc2c(c1)C1C=CCC1C(c1ccc(C(=O)O)cc1)N2 (configuration not stated) = 62.2 µM (active)
O=C1/C(=C/c2ccc(F)cc2)SC(=S)N1NS(=O)(=O)c1ccccc1 = 36.7 µM (active)

Answer for every listed entry: what is its IC50? The entries follow.
1. O=C(CSc1nnc(-c2ccco2)c(-c2ccco2)n1)Nc1ccccc1
2. COc1cc2c3c(c1)-c1c(sn(-c4cc(OC)ccc4OC)c1=S)C(C)(C)N3C(=O)C2=O

[out]
> 100 µM (active)
61.9 µM (active)

###

system: SUMO-activating enzyme (Homo sapiens)
Sequence (Q9UBE0 whole entry): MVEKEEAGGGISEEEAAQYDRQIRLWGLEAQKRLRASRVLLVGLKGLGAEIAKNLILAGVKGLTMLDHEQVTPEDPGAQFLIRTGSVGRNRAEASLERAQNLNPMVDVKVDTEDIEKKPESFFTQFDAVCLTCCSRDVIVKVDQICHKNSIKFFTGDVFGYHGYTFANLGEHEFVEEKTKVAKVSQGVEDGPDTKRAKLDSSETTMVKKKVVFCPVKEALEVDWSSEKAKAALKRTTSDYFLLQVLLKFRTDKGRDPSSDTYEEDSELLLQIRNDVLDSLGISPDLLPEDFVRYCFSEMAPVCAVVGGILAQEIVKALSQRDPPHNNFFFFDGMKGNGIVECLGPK
Sequence (Q9UBT2 whole entry): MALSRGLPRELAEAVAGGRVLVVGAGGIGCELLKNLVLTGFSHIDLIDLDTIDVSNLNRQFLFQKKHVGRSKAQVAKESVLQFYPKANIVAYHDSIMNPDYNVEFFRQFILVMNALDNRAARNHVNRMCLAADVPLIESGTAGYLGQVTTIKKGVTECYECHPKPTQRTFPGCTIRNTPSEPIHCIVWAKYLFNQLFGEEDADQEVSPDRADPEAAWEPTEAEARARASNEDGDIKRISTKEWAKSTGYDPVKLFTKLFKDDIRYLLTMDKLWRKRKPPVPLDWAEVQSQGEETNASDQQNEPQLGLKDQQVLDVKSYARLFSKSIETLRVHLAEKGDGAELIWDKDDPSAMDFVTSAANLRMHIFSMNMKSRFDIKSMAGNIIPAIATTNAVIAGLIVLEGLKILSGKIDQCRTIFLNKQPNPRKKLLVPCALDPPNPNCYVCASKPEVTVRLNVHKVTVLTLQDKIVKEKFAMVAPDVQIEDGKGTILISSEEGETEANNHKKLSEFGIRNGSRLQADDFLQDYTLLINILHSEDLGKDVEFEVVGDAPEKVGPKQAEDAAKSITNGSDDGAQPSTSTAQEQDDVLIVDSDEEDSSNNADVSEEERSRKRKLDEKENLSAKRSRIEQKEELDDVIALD
experimental-details: blockers of SAE1/SAE2–UBC9 SUMO transfer – biochemical, HTRF, uHTS, primary screen (AID 2006)
Assay type: protein-complex assay
Active and inactive are the calls of the source.
Field 'call' accepts active, inactive

Check out these entries, answers already filled in.
N#Cc1c(-c2ccc(Cl)cc2)cc(-c2cccs2)nc1SCC(=O)O = inactive
Cc1ccc(NC(=O)CN2C(=O)N/C(=C/c3cccn3-c3ccc(C(=O)O)cc3)C2=O)cc1 = active
N#Cc1c(-c2cccs2)nc(SCc2ccc(Cl)cc2)[nH]c1=O = active

Next:
[in] Lab log entry: `CC(=O)N(C1=C(Cl)C(=O)c2ccccc2C1=O)c1ccc(C(=O)O)cc1` — outcome as called in the assay?
[out] active

###

system: Short transient receptor potential channel 4 (Mus musculus, UniProt Q9QUQ5)
Sequence (Q9QUQ5 whole entry): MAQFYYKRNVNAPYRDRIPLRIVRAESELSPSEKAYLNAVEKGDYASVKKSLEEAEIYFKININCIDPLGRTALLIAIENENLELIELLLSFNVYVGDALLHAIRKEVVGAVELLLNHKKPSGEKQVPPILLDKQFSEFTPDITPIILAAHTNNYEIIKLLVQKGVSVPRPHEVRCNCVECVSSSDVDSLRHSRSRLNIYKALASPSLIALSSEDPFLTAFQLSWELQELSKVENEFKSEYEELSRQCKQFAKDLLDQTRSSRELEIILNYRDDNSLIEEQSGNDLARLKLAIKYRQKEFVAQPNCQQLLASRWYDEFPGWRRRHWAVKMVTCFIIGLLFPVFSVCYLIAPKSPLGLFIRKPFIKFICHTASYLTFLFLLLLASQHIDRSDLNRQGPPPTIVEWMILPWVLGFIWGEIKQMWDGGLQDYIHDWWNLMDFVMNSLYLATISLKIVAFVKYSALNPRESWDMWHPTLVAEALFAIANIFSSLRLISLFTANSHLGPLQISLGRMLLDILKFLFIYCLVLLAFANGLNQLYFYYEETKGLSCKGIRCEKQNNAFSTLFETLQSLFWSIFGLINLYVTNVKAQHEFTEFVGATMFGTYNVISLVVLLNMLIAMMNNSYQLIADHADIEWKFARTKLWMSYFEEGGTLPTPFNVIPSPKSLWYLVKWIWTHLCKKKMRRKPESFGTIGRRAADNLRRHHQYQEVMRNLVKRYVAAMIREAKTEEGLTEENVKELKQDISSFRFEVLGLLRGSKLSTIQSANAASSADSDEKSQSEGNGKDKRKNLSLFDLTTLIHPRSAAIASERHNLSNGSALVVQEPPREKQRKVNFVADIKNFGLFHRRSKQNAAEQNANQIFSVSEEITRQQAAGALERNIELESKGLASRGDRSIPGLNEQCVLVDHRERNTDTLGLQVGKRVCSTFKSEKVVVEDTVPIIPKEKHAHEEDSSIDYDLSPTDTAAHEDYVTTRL
experimental-details: calcium entry via TRPC4 opening agents – cell-based, HEK293 TRPC4/mu-opioid, Fluo-4 calcium, dose response (AID 434937)
Type: functional
Calls of active or inactive are those of the source.
attribute-measured: EC50

Check out these entries, answers already filled in.
Cc1ccc(C(=O)NNC(=S)NC(=O)c2ccc(Cl)cc2)cc1 = 2.11 µM (active)
CN(CCc1ccccn1)C1CC(=O)N(c2ccc(Cl)cc2)C1=O (stereo not given) = 2.11 µM (active)
COc1ccc(C(CNC(=O)c2cc(SC)ccc2Cl)N(C)C)cc1 (stereo not given) = 0.944 µM (active)
O=C(NC1CC1)C1=C[C@H](C2CCCCC2)C[C@H](OCc2ccc(CO)cc2)O1 = 4.22 µM (active)

Note: attention shifts to another entry.
[in] Specify measured EC50 for CC(=O)Nc1ccc(CN2CCCC(C(=O)c3cccc(C(F)(F)F)c3)C2)cc1 (stereo not given) .
[out] 1.68 µM (active)

###

system: Aryl hydrocarbon receptor (Homo sapiens)
Sequence (P35869 whole entry): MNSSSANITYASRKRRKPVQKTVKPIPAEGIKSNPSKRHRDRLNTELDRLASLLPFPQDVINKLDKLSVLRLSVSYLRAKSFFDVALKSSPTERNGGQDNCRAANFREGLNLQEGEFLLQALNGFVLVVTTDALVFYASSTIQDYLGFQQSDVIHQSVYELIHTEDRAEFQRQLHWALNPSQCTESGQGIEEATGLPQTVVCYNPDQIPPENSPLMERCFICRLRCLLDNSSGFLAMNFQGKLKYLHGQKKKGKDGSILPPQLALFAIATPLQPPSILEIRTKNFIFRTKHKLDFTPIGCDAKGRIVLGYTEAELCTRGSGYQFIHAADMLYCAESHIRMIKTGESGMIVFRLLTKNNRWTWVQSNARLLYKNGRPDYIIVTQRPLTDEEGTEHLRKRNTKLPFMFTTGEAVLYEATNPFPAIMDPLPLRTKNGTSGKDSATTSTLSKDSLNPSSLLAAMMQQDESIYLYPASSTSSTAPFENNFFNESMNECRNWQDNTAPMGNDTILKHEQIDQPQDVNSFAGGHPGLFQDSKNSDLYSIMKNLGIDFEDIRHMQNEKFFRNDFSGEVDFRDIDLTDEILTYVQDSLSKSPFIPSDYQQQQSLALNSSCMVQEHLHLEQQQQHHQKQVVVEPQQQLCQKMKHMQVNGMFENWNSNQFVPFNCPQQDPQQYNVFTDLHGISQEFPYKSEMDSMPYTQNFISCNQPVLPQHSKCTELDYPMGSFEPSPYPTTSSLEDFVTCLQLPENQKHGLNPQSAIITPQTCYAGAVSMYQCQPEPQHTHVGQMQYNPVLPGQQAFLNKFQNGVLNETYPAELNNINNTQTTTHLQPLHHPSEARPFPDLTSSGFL
experimental-details: Luminescence-based cell-based high throughput dose response assay for activators of the Aryl Hydrocarbon Receptor (AHR). [Related pubchem assays: 2796 (Primary screen (AHR activators in singlicate)), 2845 (Confirmation screen (AHR activators in triplicate)), 434939 (Counterscreen (PXR activators in triplicate)), 2804 (Summary (AHR activators))]
Assay type: ADME
The source made the active and inactive calls.
attribute-measured: EC50

Cn1c(=O)c2c(nc(/C=C/c3cccc(Cl)c3)n2C)n(C)c1=O = 3340 nM (active)
CC(=O)n1cc(/C=N/NC(=O)c2sc(C)nc2C)c2ccccc21 = > 91700 nM (not active)
Cn1c(N)c(C(=O)Nc2ccccc2F)sc1=S = 857 nM (active)

Note: attention shifts to another entry.
[in] Specify measured EC50 for `CC(=O)Nc1sc2c(c1-c1nc3ccccc3s1)CCN(C(C)C)C2` .
[out] > 1130 nM (active)

###

system: Caspase-6 (Homo sapiens)
Sequence (P55212 24-179 limits assumed): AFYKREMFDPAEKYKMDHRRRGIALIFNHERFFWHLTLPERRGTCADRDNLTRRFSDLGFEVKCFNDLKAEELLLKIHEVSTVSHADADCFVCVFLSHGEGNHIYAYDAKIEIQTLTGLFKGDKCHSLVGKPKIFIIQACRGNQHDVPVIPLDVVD
Sequence (P55212 194-293 limits assumed): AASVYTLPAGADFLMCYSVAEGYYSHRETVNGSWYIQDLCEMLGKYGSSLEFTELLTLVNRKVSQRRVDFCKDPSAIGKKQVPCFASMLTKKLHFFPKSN
experimental-details: inhibition of CASP6 peptide cleavage – biochemical, VEID-R110 fluorescence, cherry-pick, dose response (AID 720632)
Activity calls are given as the source filed them.
attribute-measured: AC50

CC1(C)C=C2C(=NN(c3ccccc3)C(N)=C2C#N)CO1 = 1.07 µM (active)
CC1(CC(=O)N/N=C/c2cc([N+](=O)[O-])c(O)cc2O)OCCO1 = 23.7 µM (active)
NNC(=O)c1cc(O)c(O)c(O)c1 = 2.43 µM (active)

Note: attention shifts to another entry.
[in] Specify measured AC50 for `O=C(CSc1ccsc1[N+](=O)[O-])Nc1cc(F)ccc1F` .
[out] 5.74 µM (active)

###

system: Peroxisome proliferator-activated receptor gamma/Nuclear receptor coactivator 2 (Homo sapiens)
Sequence (P37231 whole entry): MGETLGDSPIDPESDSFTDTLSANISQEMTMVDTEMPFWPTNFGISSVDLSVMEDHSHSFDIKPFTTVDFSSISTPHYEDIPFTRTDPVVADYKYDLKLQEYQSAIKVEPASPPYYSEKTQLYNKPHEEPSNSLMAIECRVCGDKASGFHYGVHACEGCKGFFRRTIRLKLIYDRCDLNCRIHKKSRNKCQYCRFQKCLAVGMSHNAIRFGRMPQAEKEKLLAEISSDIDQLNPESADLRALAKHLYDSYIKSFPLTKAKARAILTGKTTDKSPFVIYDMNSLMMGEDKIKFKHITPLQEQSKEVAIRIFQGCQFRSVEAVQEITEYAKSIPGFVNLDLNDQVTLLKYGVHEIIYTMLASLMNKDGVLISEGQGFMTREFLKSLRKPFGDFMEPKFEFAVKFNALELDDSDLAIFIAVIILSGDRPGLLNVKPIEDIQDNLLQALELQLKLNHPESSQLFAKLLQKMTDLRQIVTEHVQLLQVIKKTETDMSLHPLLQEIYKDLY
Sequence (Q15596 whole entry, further chain): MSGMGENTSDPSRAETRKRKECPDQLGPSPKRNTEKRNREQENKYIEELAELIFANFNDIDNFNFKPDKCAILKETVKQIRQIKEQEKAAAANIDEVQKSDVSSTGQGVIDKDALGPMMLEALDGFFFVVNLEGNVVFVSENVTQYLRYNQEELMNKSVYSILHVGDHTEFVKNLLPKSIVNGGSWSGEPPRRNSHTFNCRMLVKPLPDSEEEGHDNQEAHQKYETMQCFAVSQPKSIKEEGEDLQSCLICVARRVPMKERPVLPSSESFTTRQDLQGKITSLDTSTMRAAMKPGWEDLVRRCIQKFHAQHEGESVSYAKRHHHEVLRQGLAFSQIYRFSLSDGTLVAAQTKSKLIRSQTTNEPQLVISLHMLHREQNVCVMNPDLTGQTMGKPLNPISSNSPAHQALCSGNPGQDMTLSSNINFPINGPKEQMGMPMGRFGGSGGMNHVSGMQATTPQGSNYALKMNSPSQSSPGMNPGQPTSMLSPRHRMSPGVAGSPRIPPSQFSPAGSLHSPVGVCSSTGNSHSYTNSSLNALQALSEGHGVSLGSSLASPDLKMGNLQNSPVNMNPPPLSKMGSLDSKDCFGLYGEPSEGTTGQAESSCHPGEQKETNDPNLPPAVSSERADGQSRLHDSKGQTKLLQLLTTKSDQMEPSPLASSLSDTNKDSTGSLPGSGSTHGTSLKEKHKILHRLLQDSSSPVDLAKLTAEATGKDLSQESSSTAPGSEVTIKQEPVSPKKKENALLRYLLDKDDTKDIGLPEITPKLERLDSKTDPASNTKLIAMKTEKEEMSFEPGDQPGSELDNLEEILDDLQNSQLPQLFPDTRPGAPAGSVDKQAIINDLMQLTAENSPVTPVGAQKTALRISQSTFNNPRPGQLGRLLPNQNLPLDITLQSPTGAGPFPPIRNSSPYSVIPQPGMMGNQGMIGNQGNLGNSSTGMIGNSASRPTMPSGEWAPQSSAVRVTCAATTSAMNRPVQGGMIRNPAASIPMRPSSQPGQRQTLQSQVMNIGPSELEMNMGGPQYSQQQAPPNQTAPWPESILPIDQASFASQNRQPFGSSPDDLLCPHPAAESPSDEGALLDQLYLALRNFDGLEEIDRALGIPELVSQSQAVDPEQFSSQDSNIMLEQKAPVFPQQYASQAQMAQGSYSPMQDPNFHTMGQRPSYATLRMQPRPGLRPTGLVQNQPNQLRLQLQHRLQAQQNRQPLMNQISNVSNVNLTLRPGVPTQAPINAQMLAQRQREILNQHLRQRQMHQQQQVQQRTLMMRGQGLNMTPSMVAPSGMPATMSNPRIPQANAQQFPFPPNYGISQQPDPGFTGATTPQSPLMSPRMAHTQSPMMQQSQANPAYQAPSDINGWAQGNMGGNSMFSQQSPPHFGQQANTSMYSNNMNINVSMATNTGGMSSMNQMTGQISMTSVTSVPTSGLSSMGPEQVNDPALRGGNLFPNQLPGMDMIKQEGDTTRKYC
experimental-details: TR-FRET dose response biochemical High Throughput Screening assay for agonists of the steroid receptor coactivator 2 (SRC-2) recruitment by the peroxisome proliferator-activated receptor gamma (PPAR gamma): non-selective agonists. [Related pubchem assays: 1297, 1032 ]
Type: functional
The source made the active and inactive calls.
I'd appreciate it if you could supply EC50 values for the items below.

Check out these entries, answers already filled in.
CCCCNC(=O)CSc1nc(CCC)nc2ccccc12 = > 79.4 µM (not active)
N#Cc1c(-c2cccs2)nc(SCc2ccc(Cl)cc2)[nH]c1=O = > 79.4 µM (not active)
Cc1cc2cc(CNC(=O)c3ccc(S(=O)(=O)N4CCCC4)cc3)ccc2n1C = 3.91 µM (active)
Cc1ccc(CNC(=O)CSc2c3c(nc4cc(Cl)ccc24)CCCC3)o1 = > 79.4 µM (not active)

Note: attention shifts to another entry.
[in] Specify measured EC50 for `CN1CCN(C(=O)CSc2cc(=O)n(C)c3ccccc23)CC1` .
[out] > 79.4 µM (not active)
